- Test system: E. coli
- Assay Overview: Geometric mean of MICs, selectivity and targeting indices
- Format: cell-based
- Condition Notes: all strains; smaller = greater specificity for E. coli
Square brackets hold non-standard residues; d marks the D form. Peptide text beside a SMILES is read from it.
TI All (TIall, targeting index) by entry:

{"Compound": "CC[C@H](C)[C@H](NC(=O)CNC(=O)[C@H]1CCCN1C(=O)[C@H](CCCCN)NC(=O)[C@H](Cc1c[nH]c2ccccc12)NC(=O)[C@@H](NC(=O)[C@@H](N)CCCCN)[C@@H](C)CC)C(=O)N[C@@H](CCCCN)C(=O)N[C@@H](CCCCN)C(=O)N[C@@H](Cc1c[nH]c2ccccc12)C(=O)O [Peptide 1] (H-KIWK[dP]GIKKW-OH; N-terminus and C-terminus assumed)", "TI All (TIall, targeting index)": 1.000}
{"Compound": "CC[C@H](C)[C@H](NC(=O)CNC(=O)[C@H]1CCCN1C(=O)[C@H](CCCCN)NC(=O)[C@H](Cc1c[nH]c2ccccc12)NC(=O)[C@@H](NC(=O)[C@H](CCCCN)NC(=O)[C@H](CCCCN)NC(=O)[C@@H](N)Cc1c[nH]c2ccccc12)[C@@H](C)CC)C(=O)N[C@@H](CCCCN)C(=O)N[C@@H](CCCCN)C(=O)N[C@@H](Cc1c[nH]c2ccccc12)C(=O)N[C@H](C(=O)N[C@@H](CCCCN)C(=O)O)[C@@H](C)CC [Peptide 2] (H-WKKIWK[dP]GIKKWIK-OH; N-terminus and C-terminus assumed)", "TI All (TIall, targeting index)": 0.067}
{"Compound": "CC[C@H](C)[C@H](NC(=O)CNC(=O)[C@H]1CCCN1C(=O)[C@H](CCCCN)NC(=O)[C@H](Cc1c[nH]c2ccccc12)NC(=O)[C@@H](NC(=O)[C@H](CCCCN)NC(=O)[C@@H](NC(=O)[C@@H](N)Cc1c[nH]c2ccccc12)[C@@H](C)CC)[C@@H](C)CC)C(=O)N[C@@H](CCCCN)C(=O)N[C@@H](CCCCN)C(=O)N[C@@H](Cc1c[nH]c2ccccc12)C(=O)N[C@H](C(=O)N[C@@H](CCCCN)C(=O)O)[C@@H](C)CC [Peptide 7] (H-WIKIWK[dP]GIKKWIK-OH; N-terminus and C-terminus assumed)", "TI All (TIall, targeting index)": 0.105}
{"Compound": "CC[C@H](C)[C@H](NC(=O)CNC(=O)[C@H]1CCCN1C(=O)[C@H](CCCCN)NC(=O)[C@H](Cc1c[nH]c2ccccc12)NC(=O)[C@@H](NC(=O)[C@H](CCCCN)NC(=O)[C@H](CCCCN)NC(=O)[C@@H](N)Cc1c[nH]c2ccccc12)[C@@H](C)CC)C(=O)N[C@@H](CCCCN)C(=O)N[C@@H](CCCCN)C(=O)N[C@@H](Cc1c[nH]c2ccccc12)C(=O)N[C@@H](CCCCN)C(=O)N[C@@H](CCCCN)C(=O)O [Peptide 8] (H-WKKIWK[dP]GIKKWKK-OH; N-terminus and C-terminus assumed)", "TI All (TIall, targeting index)": 0.079}
{"Compound": "CC[C@H](C)[C@H](NC(=O)CNC(=O)[C@H]1CCCN1C(=O)[C@H](CCCCN)NC(=O)[C@H](Cc1c[nH]c2ccccc12)NC(=O)[C@@H](NC(=O)[C@H](CCCCN)NC(=O)[C@@H](NC(=O)[C@@H](N)Cc1c[nH]c2ccccc12)[C@@H](C)CC)[C@@H](C)CC)C(=O)N[C@@H](CCCCN)C(=O)N[C@@H](CCCCN)C(=O)N[C@@H](Cc1c[nH]c2ccccc12)C(=O)N[C@@H](CCCCN)C(=O)N[C@@H](CCCCN)C(=O)O [Peptide 9] (H-WIKIWK[dP]GIKKWKK-OH; N-terminus and C-terminus assumed)", "TI All (TIall, targeting index)": 0.100}

---

- Test system: E. coli
- Assay Overview: Geometric mean of MICs, selectivity and targeting indices
- Assay type: cell-based
- Condition Notes: MHC/GM (E. coli); MHC >128 counted as 256 μM; larger = greater cell selectivity
Square brackets hold non-standard residues; d marks the D form. Peptide text beside a SMILES is read from it.

{"Molecule": "CC[C@H](C)[C@H](NC(=O)CNC(=O)[C@H]1CCCN1C(=O)[C@H](CCCCN)NC(=O)[C@H](Cc1c[nH]c2ccccc12)NC(=O)[C@@H](NC(=O)[C@H](CCCCN)NC(=O)[C@H](CCCCN)NC(=O)[C@@H](N)Cc1c[nH]c2ccccc12)[C@@H](C)CC)C(=O)N[C@@H](CCCCN)C(=O)N[C@@H](CCCCN)C(=O)N[C@@H](Cc1c[nH]c2ccccc12)C(=O)N[C@@H](CCCCN)C(=O)N[C@@H](CCCCN)C(=O)O [Peptide 8] (H-WKKIWK[dP]GIKKWKK-OH; N-terminus and C-terminus assumed)", "SI E. coli (selectivity index)": 12.699}
{"Molecule": "CC[C@H](C)[C@H](NC(=O)CNC(=O)[C@H]1CCCN1C(=O)[C@H](CCCCN)NC(=O)[C@H](Cc1c[nH]c2ccccc12)NC(=O)[C@@H](NC(=O)[C@H](CCCCN)NC(=O)[C@@H](NC(=O)[C@@H](N)Cc1c[nH]c2ccccc12)[C@@H](C)CC)[C@@H](C)CC)C(=O)N[C@@H](CCCCN)C(=O)N[C@@H](CCCCN)C(=O)N[C@@H](Cc1c[nH]c2ccccc12)C(=O)N[C@H](C(=O)N[C@@H](CCCCN)C(=O)O)[C@@H](C)CC [Peptide 7] (H-WIKIWK[dP]GIKKWIK-OH; N-terminus and C-terminus assumed)", "SI E. coli (selectivity index)": 10.080}
{"Molecule": "CC[C@H](C)[C@H](NC(=O)CNC(=O)[C@H]1CCCN1C(=O)[C@H](CCCCN)NC(=O)[C@H](Cc1c[nH]c2ccccc12)NC(=O)[C@@H](NC(=O)[C@H](CCCCN)NC(=O)[C@@H](NC(=O)[C@@H](N)Cc1c[nH]c2ccccc12)[C@@H](C)CC)[C@@H](C)CC)C(=O)N[C@@H](CCCCN)C(=O)N[C@@H](CCCCN)C(=O)N[C@@H](Cc1c[nH]c2ccccc12)C(=O)N[C@@H](CCCCN)C(=O)N[C@@H](CCCCN)C(=O)O [Peptide 9] (H-WIKIWK[dP]GIKKWKK-OH; N-terminus and C-terminus assumed)", "SI E. coli (selectivity index)": 14.255}
{"Molecule": "CC[C@H](C)[C@H](NC(=O)CNC(=O)[C@H]1CCCN1C(=O)[C@H](CCCCN)NC(=O)[C@H](Cc1c[nH]c2ccccc12)NC(=O)[C@@H](NC(=O)[C@@H](N)CCCCN)[C@@H](C)CC)C(=O)N[C@@H](CCCCN)C(=O)N[C@@H](CCCCN)C(=O)N[C@@H](Cc1c[nH]c2ccccc12)C(=O)O [Peptide 1] (H-KIWK[dP]GIKKW-OH; N-terminus and C-terminus assumed)", "SI E. coli (selectivity index)": 1.000}
{"Molecule": "CC[C@H](C)[C@H](NC(=O)CNC(=O)[C@H]1CCCN1C(=O)[C@H](CCCCN)NC(=O)[C@H](Cc1c[nH]c2ccccc12)NC(=O)[C@@H](NC(=O)[C@H](CCCCN)NC(=O)[C@H](CCCCN)NC(=O)[C@@H](N)Cc1c[nH]c2ccccc12)[C@@H](C)CC)C(=O)N[C@@H](CCCCN)C(=O)N[C@@H](CCCCN)C(=O)N[C@@H](Cc1c[nH]c2ccccc12)C(=O)N[C@H](C(=O)N[C@@H](CCCCN)C(=O)O)[C@@H](C)CC [Peptide 2] (H-WKKIWK[dP]GIKKWIK-OH; N-terminus and C-terminus assumed)", "SI E. coli (selectivity index)": 16.000}

---

- Test system: E. coli
- Assay Overview: Geometric mean of MICs, selectivity and targeting indices
- Assay type: cell-based
- Condition Notes: GM(E. coli)/GM(beneficial strains); smaller = greater specificity
Square brackets hold non-standard residues; d marks the D form. Peptide text beside a SMILES is read from it.
Label YES when TI Beneficial strains (targeting index) < 0.1; otherwise NO.

{"Molecule": "CC[C@H](C)[C@H](NC(=O)CNC(=O)[C@H]1CCCN1C(=O)[C@H](CCCCN)NC(=O)[C@H](Cc1c[nH]c2ccccc12)NC(=O)[C@@H](NC(=O)[C@@H](N)CCCCN)[C@@H](C)CC)C(=O)N[C@@H](CCCCN)C(=O)N[C@@H](CCCCN)C(=O)N[C@@H](Cc1c[nH]c2ccccc12)C(=O)O [Peptide 1] (H-KIWK[dP]GIKKW-OH; N-terminus and C-terminus assumed)", "Assigned Class": "NO"}
{"Molecule": "CC[C@H](C)[C@H](NC(=O)CNC(=O)[C@H]1CCCN1C(=O)[C@H](CCCCN)NC(=O)[C@H](Cc1c[nH]c2ccccc12)NC(=O)[C@@H](NC(=O)[C@H](CCCCN)NC(=O)[C@@H](NC(=O)[C@@H](N)Cc1c[nH]c2ccccc12)[C@@H](C)CC)[C@@H](C)CC)C(=O)N[C@@H](CCCCN)C(=O)N[C@@H](CCCCN)C(=O)N[C@@H](Cc1c[nH]c2ccccc12)C(=O)N[C@@H](CCCCN)C(=O)N[C@@H](CCCCN)C(=O)O [Peptide 9] (H-WIKIWK[dP]GIKKWKK-OH; N-terminus and C-terminus assumed)", "Assigned Class": "NO"}
{"Molecule": "CC[C@H](C)[C@H](NC(=O)CNC(=O)[C@H]1CCCN1C(=O)[C@H](CCCCN)NC(=O)[C@H](Cc1c[nH]c2ccccc12)NC(=O)[C@@H](NC(=O)[C@H](CCCCN)NC(=O)[C@H](CCCCN)NC(=O)[C@@H](N)Cc1c[nH]c2ccccc12)[C@@H](C)CC)C(=O)N[C@@H](CCCCN)C(=O)N[C@@H](CCCCN)C(=O)N[C@@H](Cc1c[nH]c2ccccc12)C(=O)N[C@@H](CCCCN)C(=O)N[C@@H](CCCCN)C(=O)O [Peptide 8] (H-WKKIWK[dP]GIKKWKK-OH; N-terminus and C-terminus assumed)", "Assigned Class": "YES"}
{"Molecule": "CC[C@H](C)[C@H](NC(=O)CNC(=O)[C@H]1CCCN1C(=O)[C@H](CCCCN)NC(=O)[C@H](Cc1c[nH]c2ccccc12)NC(=O)[C@@H](NC(=O)[C@H](CCCCN)NC(=O)[C@H](CCCCN)NC(=O)[C@@H](N)Cc1c[nH]c2ccccc12)[C@@H](C)CC)C(=O)N[C@@H](CCCCN)C(=O)N[C@@H](CCCCN)C(=O)N[C@@H](Cc1c[nH]c2ccccc12)C(=O)N[C@H](C(=O)N[C@@H](CCCCN)C(=O)O)[C@@H](C)CC [Peptide 2] (H-WKKIWK[dP]GIKKWIK-OH; N-terminus and C-terminus assumed)", "Assigned Class": "YES"}
